FYI, the data here is from patent US5763597A.

- assay.system: adenosine kinase
- procedure.summary: AK inhibition (adenosine kinase activity, [U-14C] adenosine)
- test.settings: 0.5 μM adenosine, 1 mM ATP, pH 7.0, 20 min; pig heart or recombinant human enzyme
pIC50: −log10 of the molar value.
parameter.measured: pIC50

# structure, reported
records = [
    ("[N-]=[N+]=NC[C@H]1O[C@@H](n2nc(-c3ccccc3)c3c(Nc4ccccc4)ncnc32)[C@H](O)[C@@H]1O", 8.35),
    ("CCc1ccc(Nc2ncnc3c2c(-c2ccccc2)cn3[C@@H]2O[C@H](C)[C@@H](O)[C@H]2O)cc1", 7.70),
    ("CCOCc1ccc(Nc2ncnc3c2c(-c2ccccc2)cn3[C@@H]2O[C@H](C)[C@@H](O)[C@H]2O)cc1", 8.70),
    ("C[C@H]1O[C@@H](n2cc(-c3ccccc3)c3c(Nc4ccc(CC#N)cc4)ncnc32)[C@H](O)[C@@H]1O", 9.00),
    ("C[C@H]1O[C@@H](n2cc(-c3ccccc3)c3c(Nc4ccc(N)cc4)ncnc32)[C@H](O)[C@@H]1O", 8.52),
    ("[N-]=[N+]=NC[C@H]1O[C@@H](n2nc(-c3ccccc3)c3c(Nc4ccc(Cl)cc4)ncnc32)[C@H](O)[C@@H]1O", 7.77),
    ("COc1ccc(-c2cn([C@@H]3O[C@H](C)[C@@H](O)[C@H]3O)c3ncnc(Nc4ccc(C(N)=O)cc4)c23)cc1", 8.70),
    ("[N-]=[N+]=NC[C@H]1O[C@@H](n2nc(-c3cccs3)c3c(Nc4ccccc4)ncnc32)[C@H](O)[C@@H]1O", 8.00),
    ("C[C@H]1O[C@@H](n2cc(-c3ccc(CO)cc3)c3c(Nc4ccccc4)ncnc32)[C@H](O)[C@@H]1O", 8.22),
    ("C[C@H]1O[C@@H](n2cc(-c3ccccc3)c3c(Nc4ccc(F)c(F)c4)ncnc32)[C@H](O)[C@@H]1O", 8.40),
    ("COc1ccc(-c2cn([C@@H]3O[C@H](C)[C@@H](O)[C@H]3O)c3ncnc(Nc4ccc(F)cc4)c23)cc1", 8.00),
    ("CC(=O)Nc1ccc(Nc2ncnc3c2c(-c2ccccc2)cn3[C@@H]2O[C@H](C)[C@@H](O)[C@H]2O)cc1", 9.30),
    ("C[C@H]1O[C@@H](n2cc(-c3ccccc3)c3c(Nc4ccc(O)cc4)ncnc32)[C@H](O)[C@@H]1O", 7.49),
    ("Cc1cccc(Nc2ncnc3c2c(-c2ccccc2)cn3[C@@H]2O[C@H](C)[C@@H](O)[C@H]2O)c1", 8.40),
    ("COc1ccc(-c2nn([C@@H]3O[C@H](CN=[N+]=[N-])[C@@H](O)[C@H]3O)c3ncnc(Nc4ccc(C)cc4)c23)cc1", 8.15),
    ("Cc1ccc(-c2cn([C@@H]3O[C@H](C)[C@@H](O)[C@H]3O)c3ncnc(Nc4ccccc4)c23)cc1", 8.05),
    ("C[C@H]1O[C@@H](n2cc(-c3ccccc3)c3c(Nc4ccc(NC(=O)C(F)(F)F)cc4)ncnc32)[C@H](O)[C@@H]1O", 8.70),
    ("C[C@H]1O[C@@H](n2cc(-c3ccccc3)c3c(Nc4ccc(S(N)(=O)=O)cc4)ncnc32)[C@H](O)[C@@H]1O", 8.30),
    ("C[C@H]1O[C@@H](n2cc(-c3ccc(F)cc3)c3c(Nc4ccccc4)ncnc32)[C@H](O)[C@@H]1O", 9.00),
    ("C[C@H]1O[C@@H](n2cc(-c3cccc(Cl)c3)c3c(Nc4ccccc4)ncnc32)[C@H](O)[C@@H]1O", 7.80),
    ("C[C@H]1O[C@@H](n2cc(-c3ccccc3)c3c(Nc4ccc(I)cc4)ncnc32)[C@H](O)[C@@H]1O", 8.40),
    ("CCOc1ccc(Nc2ncnc3c2c(-c2ccccc2)cn3[C@@H]2O[C@H](C)[C@@H](O)[C@H]2O)cc1", 8.40),
    ("C[C@H]1O[C@@H](n2cc(-c3cccc(N)c3)c3c(Nc4ccc(F)cc4)ncnc32)[C@H](O)[C@@H]1O", 8.52),
    ("CSc1ccc(Nc2ncnc3c2c(-c2ccccc2)cn3[C@@H]2O[C@H](C)[C@@H](O)[C@H]2O)cc1", 8.70),
    ("C[C@H]1O[C@@H](n2cc(-c3ccccc3)c3c(NCc4ccccc4)ncnc32)[C@H](O)[C@@H]1O", 7.52),
    ("C[C@H]1O[C@@H](n2cc(-c3ccccc3)c3c(Nc4cccc(F)c4)ncnc32)[C@H](O)[C@@H]1O", 8.70),
    ("[N-]=[N+]=NC[C@H]1O[C@@H](n2nc(-c3ccc(Cl)cc3)c3c(Nc4ccccc4)ncnc32)[C@H](O)[C@@H]1O", 7.82),
]

---

- Test system: liver enzymes and total bilirubin in female SA rats
- procedure.summary: Liver toxicity (serum liver enzymes and bilirubin)
- Assay type: in vivo
- test.settings: rat, 2 x 37.5 μmole/kg iv infusion, 12 h after second dose; vehicle 0.10 ±0.04

# compound, Total Bilirubin / mg/dL
rows = [
    ("C[C@H]1O[C@@H](n2cc(-c3ccccc3)c3c(Nc4ccc(NC(=O)C(F)(F)F)cc4)ncnc32)[C@H](O)[C@@H]1O", 0.52),
    ("NC[C@H]1O[C@@H](n2nc(Br)c3c(N)ncnc32)[C@H](O)[C@@H]1O [REF. B, reference compound]", 0.30),
    ("C[C@H]1O[C@@H](n2cc(-c3cccc(N)c3)c3c(Nc4ccc(F)cc4)ncnc32)[C@H](O)[C@@H]1O", 0.10),
    ("C[C@H]1O[C@@H](n2cc(I)c3c(N)ncnc32)[C@H](O)[C@@H]1O [REF. A, reference compound]", 0.76),
]

---

- Test system: carrageenan paw swelling in rats
- procedure.summary: Anti-inflammatory activity, carrageenan paw swelling
- Type: in vivo
- test.settings: rat, 10 mg/kg po, 1 h before carrageenan, swelling after 3 hours
Label true (1) for high-side Carrageenan Paw (% inh) po (at or above 4 % inh) and false (0) for low-side Carrageenan Paw (% inh) po (below it).

# compound, assay.system, category
data = [
    ("C[C@H]1O[C@@H](n2cc(-c3ccccc3)c3c(Nc4ccc(S(N)(=O)=O)cc4)ncnc32)[C@H](O)[C@@H]1O [compound 34]", "carrageenan paw swelling in rats", "false (0)"),
    ("C[C@H]1O[C@@H](n2cc(-c3cccc(N)c3)c3c(Nc4ccc(F)cc4)ncnc32)[C@H](O)[C@@H]1O [compound 131]", "carrageenan paw swelling in rats", "true (1)"),
    ("C[C@H]1O[C@@H](n2cc(-c3ccccc3)c3c(Nc4ccc(F)cc4)ncnc32)[C@H](O)[C@@H]1O [compound 1]", "carrageenan paw swelling in rats", "false (0)"),
    ("C[C@H]1O[C@@H](n2cc(-c3ccccc3)c3c(Nc4ccc(I)cc4)ncnc32)[C@H](O)[C@@H]1O [compound 128]", "carrageenan paw swelling in rats", "false (0)"),
    ("C[C@H]1O[C@@H](n2cc(-c3ccccc3)c3c(Nc4ccc(NC(=O)C(F)(F)F)cc4)ncnc32)[C@H](O)[C@@H]1O [compound 129]", "carrageenan paw swelling in rats", "true (1)"),
]

---

- assay.system: adenosine kinase
- procedure.summary: AK inhibition (adenosine kinase activity, [U-14C] adenosine)
- Assay type: biochemical, partially purified pig heart or recombinant human
- test.settings: 0.5 μM adenosine, 1 mM ATP, pH 7.0, 20 min; pig heart or recombinant human enzyme
- Description: Adenosine kinase activity was measured essentially as described by Yamada et al. Biochim. Biophys. Acta 660, 3643 (1988) with a few minor modifications. Assay mixtures contained 50 mM TRIS-maleate buffer, pH 7.0, 0.1% BSA, 1 mM ATP 1 mM MgCl2, 0.5 μM [U-^14 C] adenosine (400-600 mCi/mmol) and varying duplicate concentrations of inhibitor. […] The amount of ^14 C-AMP was quantified by scintillation counting.
Sorting guide: entries reporting IC50 beneath 10 nM go in the yes pile, the rest go in the no pile.

# compound, category
data = [
    ("Cc1ccc(-c2nn([C@@H]3O[C@H](CN=[N+]=[N-])[C@@H](O)[C@H]3O)c3ncnc(Nc4ccccc4)c23)cc1 [compound 93]", "no"),
    ("OC[C@H]1O[C@@H](n2nc(-c3ccccc3)c3c(Nc4ccccc4)ncnc32)[C@H](O)[C@@H]1O [compound 88]", "yes"),
    ("COc1ccc(Nc2ncnc3c2c(-c2ccccc2)cn3[C@@H]2O[C@H](C)[C@@H](O)[C@H]2O)cc1 [compound 13]", "yes"),
    ("C[C@H]1O[C@@H](n2cc(-c3ccccc3)c3c(Nc4cccc(Cl)c4)ncnc32)[C@H](O)[C@@H]1O [compound 17]", "no"),
    ("C[C@H]1O[C@@H](n2nc(-c3ccccc3)c3c(Nc4ccccc4)ncnc32)[C@H](O)[C@@H]1O [compound 86]", "yes"),
    ("C[C@H]1O[C@@H](n2c(Br)c(-c3ccccc3)c3c(Nc4ccc(F)cc4)ncnc32)[C@H](O)[C@@H]1O [compound 41]", "no"),
]
